# EXPERIMENT: Papp
# Type: in vitro ADME
# SETTINGS: not told
READOUT_TYPE: Papp (×10⁻⁶ cm/s)

- COMPOUND: "Cc1cc(C)c(NC(=O)c2sccc2S(=O)(=O)Nc2onc(C)c2Cl)c(C)c1CC#N"
  READOUT_TYPE: "Papp"
  EXPERIMENTAL_VALUE: 1.78
- COMPOUND: "Cc1cc(C)c(NC(=O)c2sccc2S(=O)(=O)Nc2onc(C)c2Cl)c(C)c1CO"
  READOUT_TYPE: "Papp"
  EXPERIMENTAL_VALUE: 1.56
- COMPOUND: "Cc1cc2c(cc1CC(=O)c1sccc1S(=O)(=O)Nc1onc(C)c1Cl)OCO2"
  READOUT_TYPE: "Papp"
  EXPERIMENTAL_VALUE: 2.32
- COMPOUND: "CC(=O)OCc1c(C)cc(C)c(NC(=O)c2sccc2S(=O)(=O)Nc2onc(C)c2Cl)c1C"
  READOUT_TYPE: "Papp"
  EXPERIMENTAL_VALUE: 1.46

P = Cc1cc(C)c(NC(=O)c2sccc2S(=O)(=O)Nc2onc(C)c2Cl)c(C)c1CC(=O)O
Q = COC(=O)Cc1c(C)cc(C)c(NC(=O)c2sccc2S(=O)(=O)Nc2onc(C)c2Cl)c1C
R = COc1cc(C#N)c(NC(=O)c2sccc2S(=O)(=O)Nc2onc(C)c2Cl)c(OC)c1OC
Order the items by recorded Papp; the first position goes to the largest value. Answer by naming the labels in the order asked.
Q, P, R
(Q: 1.69 ×10⁻⁶ cm/s, P: 1.1 ×10⁻⁶ cm/s, R: 0.58 ×10⁻⁶ cm/s)

----------
# SYSTEM: human ETA receptors (Homo sapiens, UniProt P25101)
# Construct: endogenous in cells; host or cells: TE 671 cells (ATCC HTB 139), membrane preparation
# Sequence (P25101 21-427): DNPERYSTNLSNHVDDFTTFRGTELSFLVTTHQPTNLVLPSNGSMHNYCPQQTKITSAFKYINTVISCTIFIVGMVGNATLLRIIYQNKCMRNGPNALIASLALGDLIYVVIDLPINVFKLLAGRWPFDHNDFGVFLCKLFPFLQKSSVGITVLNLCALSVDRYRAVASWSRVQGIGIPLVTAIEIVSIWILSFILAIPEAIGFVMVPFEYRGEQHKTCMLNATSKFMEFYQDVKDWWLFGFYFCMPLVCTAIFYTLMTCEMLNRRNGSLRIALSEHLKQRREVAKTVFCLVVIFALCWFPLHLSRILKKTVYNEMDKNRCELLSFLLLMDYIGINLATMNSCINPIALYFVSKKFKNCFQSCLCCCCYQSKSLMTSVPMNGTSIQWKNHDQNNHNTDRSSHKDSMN
# EXPERIMENT: Endothelin binding inhibition, Binding Test #1: competition with 125I-ET-1 for ETA receptors on TE 671 cell membranes
# SETTINGS: incubation at 4° C. (values without †)
READOUT_TYPE: IC50 (nM)

# annotated cases, reported IC50 shown
- COMPOUND: "Cc1noc(NS(=O)(=O)c2c(Cc3ccc(N(C)C)cc3)sc3ccccc23)c1Cl"
  READOUT_UNIT: "nM"
  EXPERIMENTAL_VALUE: 14
- COMPOUND: "Cc1noc(NS(=O)(=O)c2sccc2-c2ccc(C(C)C)cc2)c1Br"
  READOUT_UNIT: "nM"
  EXPERIMENTAL_VALUE: 218
- COMPOUND: "Cc1noc(NS(=O)(=O)c2ccsc2C(O)c2ccccc2)c1Br (centres unmarked)"
  READOUT_UNIT: "nM"
  EXPERIMENTAL_VALUE: 337
- COMPOUND: "Cc1noc(NS(=O)(=O)c2c(C)sc3ccccc23)c1C"
  READOUT_UNIT: "nM"
  EXPERIMENTAL_VALUE: 167
- COMPOUND: "CCCCc1ccc(-c2ccsc2S(=O)(=O)Nc2onc(C)c2Br)cc1"
  READOUT_UNIT: "nM"
  EXPERIMENTAL_VALUE: 160

A = Cc1ccc(NC(=O)c2sccc2S(=O)(=O)Nc2onc(C)c2Cl)cc1
B = Cc1noc(NS(=O)(=O)c2csc(-c3ccccc3C=O)c2)c1Br
C = CCCc1ccc(-c2ccsc2S(=O)(=O)Nc2onc(C)c2Br)cc1
D = CCc1ccc(-c2ccsc2S(=O)(=O)Nc2onc(C)c2Br)cc1
E = Cc1ccc(-c2ccc(S(=O)(=O)Nc3noc(C)c3Br)s2)cc1
Order the items by recorded IC50; the first position goes to the largest value. Answer by naming the labels in the order asked.
E, B, D, C, A
(E: 7100 nM, B: 3460 nM, D: 184 nM, C: 87.3 nM, A: 1.16 nM)

P = Cc1noc(NS(=O)(=O)c2c(Cc3ccc4c(c3)OCO4)sc3ccccc23)c1Br
Q = COc1cccc(NCc2sccc2S(=O)(=O)Nc2onc(C)c2C)c1
Decide: P or Q , by lowest recorded IC50. Let me know the label of the one you choose.
P

Reference source: patent US6632829B2
